src = ChEMBL document CHEMBL1155812

molecular target: Lysosomal alpha-mannosidase (Homo sapiens, UniProt O00754); assay: Inhibition of alpha-mannosidase in human HCEC; format: cell-based
Sequence (O00754 50-345 limits assumed): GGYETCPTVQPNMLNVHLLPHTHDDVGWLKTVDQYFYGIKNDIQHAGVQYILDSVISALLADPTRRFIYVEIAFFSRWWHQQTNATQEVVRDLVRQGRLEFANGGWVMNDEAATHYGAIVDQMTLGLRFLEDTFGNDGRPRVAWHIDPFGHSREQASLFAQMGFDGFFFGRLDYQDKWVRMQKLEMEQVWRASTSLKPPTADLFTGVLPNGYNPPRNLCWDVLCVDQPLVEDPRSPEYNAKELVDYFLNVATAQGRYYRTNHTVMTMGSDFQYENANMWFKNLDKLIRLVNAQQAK
Sequence (O00754 346-429 limits assumed): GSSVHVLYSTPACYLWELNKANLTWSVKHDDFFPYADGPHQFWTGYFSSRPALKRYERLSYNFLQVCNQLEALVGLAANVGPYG
Sequence (O00754 430-601 limits assumed): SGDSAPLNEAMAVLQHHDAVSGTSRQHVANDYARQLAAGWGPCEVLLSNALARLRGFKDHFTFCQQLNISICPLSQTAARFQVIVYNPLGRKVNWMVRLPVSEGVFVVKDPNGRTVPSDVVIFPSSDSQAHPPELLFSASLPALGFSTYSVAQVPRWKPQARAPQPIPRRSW
Sequence (O00754 602-882 limits assumed): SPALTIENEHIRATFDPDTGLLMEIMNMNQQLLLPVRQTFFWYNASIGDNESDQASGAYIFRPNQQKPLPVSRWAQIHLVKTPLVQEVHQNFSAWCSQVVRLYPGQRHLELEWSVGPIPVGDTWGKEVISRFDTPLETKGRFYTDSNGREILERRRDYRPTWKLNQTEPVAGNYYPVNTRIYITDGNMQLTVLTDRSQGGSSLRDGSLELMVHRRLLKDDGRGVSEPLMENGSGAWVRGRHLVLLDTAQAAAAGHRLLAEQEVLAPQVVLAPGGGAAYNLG
Sequence (O00754 883-1011 limits assumed): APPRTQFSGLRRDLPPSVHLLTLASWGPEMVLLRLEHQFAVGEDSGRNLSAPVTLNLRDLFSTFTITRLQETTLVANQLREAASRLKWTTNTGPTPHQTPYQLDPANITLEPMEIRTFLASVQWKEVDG
Provide the recorded pIC50 for the entries that follow.
Numbers only, as −log10 of the molar value.

compoundString | pIC50
CN1C(=O)[C@H](O)[C@H](O)[C@H]1CN[C@@H](CO)c1ccccc1 | 6.30
OC[C@H](NC[C@H]1NC[C@H](O)[C@@H]1O)c1ccccc1 | 4.60
CN1C(=O)[C@H](O)[C@H](O)[C@H]1CN[C@@H](COC(=O)c1ccc(Br)cc1)c1ccccc1 | 6.12

Required: pIC50, one value per compound below.
1. O=C(OC[C@H](NC[C@H]1NC[C@H](O)[C@@H]1O)c1ccccc1)c1ccc(Br)cc1
2. O=C1N[C@H](CN[C@@H](CO)c2ccccc2)[C@@H](O)[C@H]1O
3. O=C(OC[C@H](NC[C@H]1NC(=O)[C@H](O)[C@@H]1O)c1ccccc1)c1ccc(Br)cc1
4. O[C@H]1[C@H]2[C@H](O)CCCN2C[C@H]1O

[4.12, 4.12, 4.12, 8.00]

====

molecular target: UniProt:O00754; assay: Inhibition of alpha-mannosidase in human LN18 cells; assay type: cell-based
propertyName: IC50 (µM)
Numbers only, in µM.

Example results:
compoundString | assayTarget | propertyName | measValue
O[C@H]1[C@H]2[C@H](O)CCCN2C[C@H]1O | UniProt:O00754 | IC50 | 0.05
O=C(OC[C@H](NC[C@H]1NC(=O)[C@H](O)[C@@H]1O)c1ccccc1)c1ccc(Br)cc1 | UniProt:O00754 | IC50 | 750
O=C(OC[C@H](NC[C@H]1NC[C@H](O)[C@@H]1O)c1ccccc1)c1ccc(Br)cc1 | UniProt:O00754 | IC50 | 200
CN1C(=O)[C@H](O)[C@H](O)[C@H]1CN[C@@H](CO)c1ccccc1 | UniProt:O00754 | IC50 | 2
CN1C(=O)[C@H](O)[C@H](O)[C@H]1CN[C@@H](COC(=O)c1ccc(Br)cc1)c1ccccc1 | UniProt:O00754 | IC50 | 75

I would be grateful if you could provide IC50 for each of the following entries.
1. OC[C@H](NC[C@H]1NC[C@H](O)[C@@H]1O)c1ccccc1
2. O=C1N[C@H](CN[C@@H](CO)c2ccccc2)[C@@H](O)[C@H]1O

[50, 350]

====

experiment: Growth inhibition of human HCEC at 300 uM after 24 hrs by MTT assay; type: cell-based; details: HCEC cells, read-out: GI
propertyName: inhibition at 24 h, 300 µM

Report inhibition at 24 h, 300 µM for O=C(OC[C@H](NC[C@H]1NC(=O)[C@H](O)[C@@H]1O)c1ccccc1)c1ccc(Br)cc1 please.
85%

====

assay: Inhibition of drosophila golgi alpha-mannosidase 2
Assign Ki to each entry below.
Numbers only, in µM.

compoundString | measValue
OC[C@H](NC[C@H]1NC[C@H](O)[C@@H]1O)c1ccccc1 | 67

Attention now shifts to the item below.
Please look up its Ki: O[C@H]1[C@H]2[C@H](O)CCCN2C[C@H]1O
0.02

====

assay: Inhibition of jack bean alpha-mannosidase; set-up: species or system Canavalia ensiformis
propertyName: pKi
One number for each entry, as −log10 of the molar value.

compoundString | measValue
CN1C(=O)[C@H](O)[C@H](O)[C@H]1CN[C@@H](CO)c1ccccc1 | 6.69
O[C@H]1[C@H]2[C@H](O)CCCN2C[C@H]1O | 6.81

Could you share which pKi value was measured for O=C1N[C@H](CN[C@@H](CO)c2ccccc2)[C@@H](O)[C@H]1O ?
5.40
